Below is a list of entries, each paired with its recorded pEC50 value.
Target: K18 aggregates (Tau K18 fragment, amino acids 244 to 372 of human Tau441) (Homo sapiens)
Construct: encompassing amino acids 244 to 372 of the longest isoform (2N4R) of human Tau441
Sequence (P10636 561-689): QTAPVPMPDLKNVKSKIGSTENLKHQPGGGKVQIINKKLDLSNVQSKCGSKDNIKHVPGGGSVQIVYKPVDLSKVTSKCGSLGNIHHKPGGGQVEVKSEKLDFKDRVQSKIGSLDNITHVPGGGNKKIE
Experiment: Tau K18 disaggregation assay by ThT
Details: 2 μM K18 aggregates, 160 to 0.04 μM compound, 30 minutes RT, ThT fluorescence; read-out: TauK18 disaggregation EC50
Description: Tau K18 Disaggregation Assay by ThT The Tau K18 fragment, encompassing amino acids 244 to 372 of the longest isoform (2N4R) of human Tau441, was expressed in bacteria and purified or bought from SignalChem. […] Fluorescence (relative fluorescence units; RFU) was measured in monoplicate or duplicate on a Tecan reader (excitation: 440 nm; emission: 485 nm). […]
pEC50: −log10 of the molar value.

Compound	pEC50
CN(C)[C@H]1CCc2oc3nc(Nc4ccc5nc(N6CCOCC6)sc5c4)ccc3c2C1	4.60 to 5.00
CN(C)[C@@H]1CCc2oc3nc(Nc4ccc5nc(N6CCOCC6)sc5c4)ccc3c2C1	4.30 to 4.60
CN(C)[C@H]1CCc2c(c3ccc(Nc4ccc5nc(N6CCOCC6)sc5c4)nc3n2C)C1	> 5.00
CN(C)C1CCc2oc3nc(Nc4ccc5nc(N6CCOCC6)oc5c4)ccc3c2C1 (centres unmarked)	4.60 to 5.00
CN(C)[C@H]1CCc2oc3nc(Nc4ccc5sc(N6CCOCC6)nc5c4)ccc3c2C1	> 5.00
CC(C)N1CCc2c(c3ccc(Nc4ccc5nc(N6CCOCC6)sc5c4)nc3n2C)C1	4.60 to 5.00
CN(C)C1CCc2oc3nc(Nc4ccc5oc(N6CCOCC6)nc5c4)ccc3c2C1 (centres unmarked)	4.60 to 5.00
CN(C)C1CCc2oc3nc(Nc4ccc5nc(N6CCOCC6)sc5c4)ccc3c2C1 (centres unmarked)	4.30 to 4.60
